- Test system: MCF7
- EXPERIMENT_NOTES: Cytotoxicity against human MCF7 cells after 6 days by MTT assay
- Assay type: functional
- CONDITION_SET: MCF7, 144 h, read-out: ED50 (the source's name)
MEASURED_ATTRIBUTE: EC50

Study these solved cases before continuing.
O=C(O)c1c(-c2ccc(Br)cc2)oc2ccccc2c1=O; > 25 µg/mL
COC(=O)c1c(-c2ccc(NC(C)=O)cc2)oc2cc(OC)ccc2c1=O; 9.19 µg/mL
COc1ccc2oc(-c3ccc(O)cc3)c(C(=O)O)c(=O)c2c1; > 25 µg/mL

Task item: Recorded EC50 of COc1cc(-c2cc(=O)c3cc(O)ccc3o2)cc(OC)c1OC , please.
Reply: > 25 µg/mL

Task item: Recorded EC50 of COc1cc(-c2cc(=O)c3ccc(OC(C)=O)cc3o2)cc(OC)c1O , please.
Reply: > 25 µg/mL

Task item: Recorded EC50 of COC(=O)c1c(-c2ccc(OCc3ccccc3)cc2)oc2cc(OC)ccc2c1=O , please.
Reply: 5.16 µg/mL

Task item: Recorded EC50 of COc1cc(-c2cc(=O)c3ccc(O)cc3o2)cc(OC)c1O , please.
Reply: > 25 µg/mL

Task item: Recorded EC50 of Nc1ccc(-c2cc(=O)c3cc(O)ccc3o2)cc1 , please.
Reply: > 25 µg/mL

Task item: Recorded EC50 of COc1cc(-c2cc(=O)c3ccc(OC(C)=O)c(OC(C)=O)c3o2)cc(OC)c1O[Si](C)(C)C(C)(C)C , please.
Reply: > 25 µg/mL

Task item: Recorded EC50 of CC(=O)Nc1ccc(-c2cc(=O)c3ccc(OC(C)=O)cc3o2)cc1 , please.
Reply: 19.2 µg/mL

Task item: Recorded EC50 of COc1cc(OC)cc(-c2oc3ccccc3c(=O)c2C(=O)O)c1 , please.
Reply: > 25 µg/mL

###

Below, each entry is listed with its recorded EC50.
- Test system: MCF7
- EXPERIMENT_NOTES: Cytotoxicity against human MCF7 cells after 6 days by MTT assay
- Type: functional
- CONDITION_SET: MCF7, 144 h, read-out: ED50 (the source's name)

COc1ccc2c(=O)cc(-c3cc(OC)c(OC)c(OC)c3)oc2c1; > 25 µg/mL
COc1cc(-c2cc(=O)c3cc(O)ccc3o2)cc(OC)c1O[Si](C)(C)C(C)(C)C; 2.01 µg/mL

Task item: Recorded EC50 of COC(=O)c1c(-c2ccc(O)cc2)oc2ccc(OC)cc2c1=O , please.
Reply: > 25 µg/mL

Task item: Recorded EC50 of COC(=O)c1c(-c2ccc([N+](=O)[O-])cc2)oc2ccc(OC)cc2c1=O , please.
Reply: > 25 µg/mL

Task item: Recorded EC50 of COC(=O)c1c(-c2ccc(O)cc2)oc2cc(OC)ccc2c1=O , please.
Reply: > 25 µg/mL

###

- Test system: SK-MEL
- EXPERIMENT_NOTES: Cytotoxicity against human SK-MEL cells after 6 days by MTT assay
- Assay type: functional
- CONDITION_SET: 144 h, read-out: ED50 (the source's name)
MEASURED_ATTRIBUTE: EC50 (µg/mL)
Report as a plain number; the unit µg/mL is understood.

COc1cc(-c2cc(=O)c3cc(O)ccc3o2)cc(OC)c1O; 5.68

Alright, here's another compound for you.
Task item: Find EC50 (SK-MEL) for the entry COc1cc(-c2cc(=O)c3cc(O)ccc3o2)cc(OC)c1O[Si](C)(C)C(C)(C)C
Reply: 2.95

###

Below, each entry is listed with its recorded EC50.
- Test system: SK-MEL
- EXPERIMENT_NOTES: Cytotoxicity against human SK-MEL cells after 6 days by MTT assay
- Assay type: functional
- CONDITION_SET: 144 h, read-out: ED50 (the source's name)
Report as a plain number; the unit µg/mL is understood.

COC(=O)c1c(-c2ccc([N+](=O)[O-])cc2)oc2ccc(OC)cc2c1=O; 8.18
O=c1cc(-c2cccc(O)c2)oc2cc(O)ccc12; 5.11
COc1cc(-c2cc(=O)c3ccc(O)c(O)c3o2)cc(OC)c1O[Si](C)(C)C(C)(C)C; 0.11

Alright, here's another compound for you.
Task item: Recorded EC50 of COC(=O)c1c(-c2ccc(O)cc2)oc2cc(OC)ccc2c1=O , please.
Reply: 19.6

###

- Tested on: MCF7
- EXPERIMENT_NOTES: Cytotoxicity against human MCF7 cells after 6 days by MTT assay
- Type: functional
- CONDITION_SET: MCF7, 144 h, read-out: ED50 (the source's name)
MEASURED_ATTRIBUTE: EC50

Study these solved cases before continuing.
COc1cc(-c2cc(=O)c3c(O)cccc3o2)cc(OC)c1O; 0.51 µg/mL
COc1cc(-c2cc(=O)c3ccc(OC(C)=O)cc3o2)cc(OC)c1O[Si](C)(C)C(C)(C)C; 4.19 µg/mL
CC(C)(C)[Si](C)(C)Oc1ccc(-c2cc(=O)c3ccc(O)cc3o2)cc1; 4.66 µg/mL
COc1ccc2oc(-c3ccc([N+](=O)[O-])cc3)c(C(=O)O)c(=O)c2c1; 15.8 µg/mL
COC(=O)c1c(-c2ccc([N+](=O)[O-])cc2)oc2ccccc2c1=O; > 25 µg/mL

Task item: Recorded EC50 of COC(=O)c1c(-c2ccc(Br)cc2)oc2ccccc2c1=O , please.
Reply: > 25 µg/mL

Task item: Recorded EC50 of O=c1cc(-c2ccc([N+](=O)[O-])cc2)oc2cc(O)cc(O)c12 , please.
Reply: 6.9 µg/mL

Task item: Recorded EC50 of COC(=O)c1c(-c2ccc(OCc3ccccc3)cc2)oc2ccccc2c1=O , please.
Reply: > 25 µg/mL

Task item: Recorded EC50 of COc1cc(-c2cc(=O)c3ccc(O)c(O)c3o2)cc(OC)c1O , please.
Reply: > 25 µg/mL

Task item: Recorded EC50 of Nc1ccc(-c2cc(=O)c3c(O)cc(O)cc3o2)cc1 , please.
Reply: > 25 µg/mL

###

- System: SK-MEL
- EXPERIMENT_NOTES: Cytotoxicity against human SK-MEL cells after 6 days by MTT assay
- Format: functional
- CONDITION_SET: 144 h, read-out: ED50 (the source's name)
MEASURED_ATTRIBUTE: EC50

COc1cc(-c2cc(=O)c3c(O)cccc3o2)cc(OC)c1O; > 25 µg/mL
O=C(O)c1c(-c2ccc(Br)cc2)oc2ccccc2c1=O; > 25 µg/mL
COc1cc(-c2oc3ccccc3c(=O)c2C(=O)O)cc(OC)c1OC; > 25 µg/mL
O=c1cc(-c2ccc([N+](=O)[O-])cc2)oc2cc(O)ccc12; > 25 µg/mL

Task item: Recorded EC50 of COc1cc(OC)cc(-c2oc3ccccc3c(=O)c2C(=O)O)c1 , please.
Reply: > 25 µg/mL

Task item: Recorded EC50 of COC(=O)c1c(-c2ccc(O)cc2)oc2ccccc2c1=O , please.
Reply: > 25 µg/mL

###

- Test system: MCF7
- EXPERIMENT_NOTES: Cytotoxicity against human MCF7 cells after 6 days by MTT assay
- Type: functional
- CONDITION_SET: MCF7, 144 h, read-out: ED50 (the source's name)
MEASURED_ATTRIBUTE: EC50

Study these solved cases before continuing.
COC(=O)c1c(-c2cc(OC)c(OC)c(OC)c2)oc2ccccc2c1=O; > 25 µg/mL
COC(=O)c1c(-c2ccc(N)cc2)oc2ccccc2c1=O; > 25 µg/mL
COC(=O)c1c(-c2ccc(OC)c(OC)c2)oc2ccccc2c1=O; > 25 µg/mL
COC(=O)c1c(-c2ccc(O)cc2)oc2ccccc2c1=O; > 25 µg/mL
COc1ccc2oc(-c3cc(OC)c(OC)c(OC)c3)cc(=O)c2c1; > 25 µg/mL

Alright, here's another molecule for you.
Task item: Recorded EC50 of CC(=O)Nc1ccc(-c2cc(=O)c3c(OC(C)=O)cc(OC(C)=O)cc3o2)cc1 , please.
Reply: 1.78 µg/mL

###

- System: SK-MEL
- EXPERIMENT_NOTES: Cytotoxicity against human SK-MEL cells after 6 days by MTT assay
- Assay type: functional
- CONDITION_SET: 144 h, read-out: ED50 (the source's name)
Below, each entry is listed with its recorded EC50.

Study these solved cases before continuing.
COc1cc(-c2cc(=O)c3ccc(O)c(O)c3o2)cc(OC)c1OC; > 25 µg/mL
O=C(O)c1c(-c2ccc([N+](=O)[O-])cc2)oc2ccccc2c1=O; > 25 µg/mL

Alright, here's another molecule for you.
Task item: Recorded EC50 of COc1ccc2c(=O)cc(-c3cc(OC)c(OC)c(OC)c3)oc2c1 , please.
Reply: > 25 µg/mL
